Measured log10 TGI, listed per entry.
- Test system: RPMI-8226 leukemia
- assay.explanation: NCI tumour cell line growth inhibition, 48 h
property.label: log10 TGI (log10 of the value in µM)

[[record]]
molecule = "O=[N+]([O-])c1ccc(S(=O)(=O)Cc2ccccc2)c([N+](=O)[O-])c1"
result_number = 0.76

[[record]]
molecule = "O=C1c2ccccc2-c2c1c1ccccc1c(=O)n2CCCCNCCCn1c2c(c3ccccc3c1=O)C(=O)c1ccccc1-2"
result_number = -0.12

[[record]]
molecule = "FC(F)(F)c1nc(N2CCCC2)ncc1-c1nnnn1-c1ccc(Cl)cc1"
result_number = 1.11

[[record]]
molecule = "O=C(O)c1ccccc1NC(c1ccccc1)c1ccc2cccnc2c1O (stereo unspecified)"
result_number = 1.23

[[record]]
molecule = "COc1cc(C=O)ccc1Oc1nnnn1-c1ccccc1"
result_number = 1.99


====

Measured TGI, listed per entry.
- Test system: UO-31 renal
- assay.explanation: NCI tumour cell line growth inhibition, 48 h
property.label: TGI

[[record]]
compound = "C=C(C)C(=O)O[C@H]1C/C(CO)=C/CCC(=C)C(OC(C)=O)[C@H]2OC(=O)C(=C)[C@H]12 (some centres not stated)"
result = "17.7 µM"

[[record]]
compound = "N/C(=N\\N=C/c1ccccc1O)NO"
result = "> 95.5 µM"

[[record]]
compound = "CC(=O)OC12/C(=N/O)CCCCCC1c1ccccc12 (configuration not stated)"
result = "> 100 µM"

[[record]]
compound = "OC(c1cccc(-n2ccc(C(F)(F)F)n2)c1)c1cnccc1NC1CCCCCC1 (configuration not stated)"
result = "2.7 µM"

[[record]]
compound = "COc1ccc(OC)c(/C=N/NC(=O)Cc2csc3nc(-c4ccc(Br)cc4)cn23)c1"
result = "> 100 µM"

[[record]]
compound = "COc1cc2c(cc1OC)-c1cc3ccccc3c[n+]1CC2"
result = "> 100 µM"

[[record]]
compound = "COc1cc2c(cc1O)CC[C@@H]1[C@@H]2CC[C@]2(C)[C@@H](NCCN(C)C)CC[C@@H]12"
result = "0.889 µM"

[[record]]
compound = "NC(=O)c1nnc2ccc(F)cc2c1N"
result = "> 100 µM"

[[record]]
compound = "NC1=NC(=O)/C(=C/c2ccccc2[N+](=O)[O-])C(N)=N1"
result = "> 100 µM"

[[record]]
compound = "Nc1ccc(S(=O)(=O)Nc2nnc(S(N)(=O)=O)s2)cc1"
result = "> 100 µM"

[[record]]
compound = "COc1cccc(C2c3cc4c(cc3OC(C)(N3CCCC3)C2C)OCO4)c1OC (configuration not stated)"
result = "37.5 µM"

[[record]]
compound = "Nc1cc2c3c(c1)Oc1cc(N)cc4c1C3c1c(cc(N)cc1O4)O2"
result = "> 100 µM"

[[record]]
compound = "COc1ccc(-c2cc(-c3cc(Cl)ccc3Cl)nc3n[nH]c(N)c23)cc1"
result = "> 100 µM"

[[record]]
compound = "C/C(CN1C(=O)c2ccccc2C1=O)=N\\NS(=O)(=O)c1ccc(C)cc1"
result = "> 100 µM"

[[record]]
compound = "Nc1ccc2c(c1)C(=O)C(=O)c1c-2nc2ccccn12"
result = "2.64 µM"

[[record]]
compound = "COc1cc(-c2cn(S(=O)(=O)c3ccc(C)cc3)c3ccccc23)nc(-c2cn(S(=O)(=O)c3ccc(C)cc3)c3ccccc23)n1"
result = "> 75.1 µM"

[[record]]
compound = "Cc1cc2nc(C(C)C(=O)c3ccc(Cl)cc3)c(=O)[nH]c2cc1C (configuration not stated)"
result = "> 100 µM"

[[record]]
compound = "COc1ccc(C2=CC(c3ccccc3)n3nnnc3N2)cc1 (configuration not stated)"
result = "> 100 µM"

[[record]]
compound = "Cc1c2cc[n+](C)cc2c(C)c2c1sc1ccccc12"
result = "> 90.7 µM"

[[record]]
compound = "COc1ccc(C(=O)c2cc(OC)c(OC)c(OC)c2)cc1"
result = "61.9 µM"

[[record]]
compound = "OCC1OC(n2nc(-c3ccccc3)nc2-c2cnccn2)C(O)C(O)C1O (configuration not stated)"
result = "> 100 µM"

[[record]]
compound = "O=C(Nc1ccc(Cl)c(Cl)c1)c1cccc(NC2=C(Cl)C(=O)N(Cc3ccccc3)C2=O)c1"
result = "> 100 µM"


====

- Tested on: U251 CNS
- assay.explanation: NCI tumour cell line growth inhibition, 48 h
Decide by TGI: equal to or exceeding 4 µM means met, less means not met.

[[record]]
compound = "Cc1c(C#N)c2nnn(-c3ccc(Cl)cc3)c(=O)n2c1-c1ccccc1"
class_name = "not met"

[[record]]
compound = "Cc1cn(Cc2ccccc2CCO)c(=S)[nH]c1=O"
class_name = "met"

[[record]]
compound = "CCCCCC(C)(C)CCC(=O)OC1OC(COC2OC(COC3OC(CO)C(O)C(O)C3O)C(O)C(O)C2O)C(O)C(O)C1O (stereo unspecified)"
class_name = "met"

[[record]]
compound = "CC(=O)NCCc1c2c(c3nccc4c3c1Nc1ccccc1-4)OCS2"
class_name = "met"

[[record]]
compound = "COc1cc(C=O)ccc1Oc1nnnn1-c1ccccc1"
class_name = "met"

[[record]]
compound = "Cc1ccccc1NC(=O)C(=O)C(C#N)c1ccc(Cl)cc1 (stereo unspecified)"
class_name = "met"

[[record]]
compound = "CC(C)(C)c1cc(CC2C(=O)c3ccccc3C2=O)cc(C(C)(C)C)c1O"
class_name = "met"

[[record]]
compound = "C=CC[n+]1c(/C=C/C=C2\\N(C)c3ccccc3C2(C)C)sc2ccc(OC)cc21"
class_name = "met"

[[record]]
compound = "O=C(Nc1ccc(Cl)c(Cl)c1)c1cccc(NC2=C(Cl)C(=O)N(Cc3ccccc3)C2=O)c1"
class_name = "met"

[[record]]
compound = "O=C(OCc1ccccc1CN1CCOCC1)c1cccc(Br)c1"
class_name = "met"

[[record]]
compound = "CC1CC(C)C(O)C(C2CC(CC(=O)NC3CCCCC3)CC(=O)O2)C1 (stereo unspecified)"
class_name = "met"

[[record]]
compound = "COc1ccc(C2CC(c3cc(OC)c(OC)c(OC)c3)=NO2)cc1OCCCCOc1cc2c(cc1OC)C(=O)N1CCC[C@H]1C=N2 (stereo partly specified)"
class_name = "not met"

[[record]]
compound = "CN(C)c1ccc(/C=c2/c3ccccc3n3c2c2ccccc2[n+]3C)cc1"
class_name = "not met"

[[record]]
compound = "CCCCC[C@H](O)/C=C/[C@@H]1[C@@H](C/C=C\\CCCC(=O)O)[C@@H](O)C[C@H]1O"
class_name = "met"

[[record]]
compound = "ON/N=C/c1cc2c(cc1Br)OCO2"
class_name = "met"

[[record]]
compound = "O=C(O)c1ccccc1NC(c1ccccc1)c1ccc2cccnc2c1O (stereo unspecified)"
class_name = "met"

[[record]]
compound = "Cc1ccc2c(c1)C(C)Cc1c(ncnc1-n1cnc3ccccc31)N2C (stereo unspecified)"
class_name = "met"

[[record]]
compound = "Clc1ccc(CSC(Cn2ccnc2)c2ccc(Cl)cc2Cl)cc1 (stereo unspecified)"
class_name = "not met"

[[record]]
compound = "CC1(C)CC23C4COC(=O)C2CCC1C3CC4=O (stereo unspecified)"
class_name = "met"

[[record]]
compound = "Cc1ccc(S(=O)(=O)N2CCCN(S(=O)(=O)c3ccc(C)cc3)CCN(S(=O)(=O)c3ccc(C)cc3)CCCSCC2)cc1"
class_name = "met"

[[record]]
compound = "CC(=O)OC12/C(=N/O)CCCCCC1c1ccccc12 (stereo unspecified)"
class_name = "met"


====

Measured TGI, listed per entry.
- Tested on: MALME-3M melanoma
- assay.explanation: NCI tumour cell line growth inhibition, 48 h
property.label: TGI

[[record]]
compound = "Nc1ncnc2c1ncn2C1OC(COP(=O)(O)O)C(O)C1O (stereo not given)"
property_label = "TGI"
result = "> 50 µM"

[[record]]
compound = "Clc1ccc(CSC(Cn2ccnc2)c2ccc(Cl)cc2Cl)cc1 (stereo not given)"
property_label = "TGI"
result = "3.15 µM"

[[record]]
compound = "C=CCOC(=O)N1[C@H]2C#C/C=C\\C#C[C@]3(O)C(=O)C[C@H](C)[C@]24O[C@]43C2=CC(=O)C=CC21OC (stereo not given in full)"
property_label = "TGI"
result = "> 100 µM"

[[record]]
compound = "CN(C)c1ccc(/C=c2/c3ccccc3n3c2c2ccccc2[n+]3C)cc1"
property_label = "TGI"
result = "1.47 µM"

[[record]]
compound = "O=C(Nc1ccccc1-c1n[nH]c(=S)[nH]c1=O)C(F)(F)F"
property_label = "TGI"
result = "> 100 µM"

[[record]]
compound = "Cn1cc(-c2ccc3c(Nc4cccc(NC(=O)Nc5cccc(F)c5)c4)ncnc3c2)cn1"
property_label = "TGI"
result = "3.79 µM"

[[record]]
compound = "CCCCC[C@H](O)/C=C/[C@@H]1[C@@H](C/C=C\\CCCC(=O)O)[C@@H](O)C[C@H]1O"
property_label = "TGI"
result = "> 100 µM"

[[record]]
compound = "Cc1ccc(NC(=O)c2cc3cc(N=Nc4ccc(Br)cc4)ccc3oc2=O)cc1"
property_label = "TGI"
result = "> 100 µM"

[[record]]
compound = "CC1(C)CCC[C@@]2(C)C1CCC1(C)C(CCc3ccoc3)/C(=C/OS(=O)(=O)O)CCC12 (stereo not given in full) (tested in a mixture with another compound)"
property_label = "TGI"
result = "> 100 µM"

[[record]]
compound = "CC(C)(C)OC(=O)NCCCCC(N)C(N)=O (stereo not given)"
property_label = "TGI"
result = "> 100 µM"

